Origin of measurements: paper PMC11931385

// Kd lookup, one value per entry
Biological target: T1, Rb^P D584Y (human, UniProt P06400 380-788, D584Y)
T1 construct: also called variant 32
T1 sequence (looked up): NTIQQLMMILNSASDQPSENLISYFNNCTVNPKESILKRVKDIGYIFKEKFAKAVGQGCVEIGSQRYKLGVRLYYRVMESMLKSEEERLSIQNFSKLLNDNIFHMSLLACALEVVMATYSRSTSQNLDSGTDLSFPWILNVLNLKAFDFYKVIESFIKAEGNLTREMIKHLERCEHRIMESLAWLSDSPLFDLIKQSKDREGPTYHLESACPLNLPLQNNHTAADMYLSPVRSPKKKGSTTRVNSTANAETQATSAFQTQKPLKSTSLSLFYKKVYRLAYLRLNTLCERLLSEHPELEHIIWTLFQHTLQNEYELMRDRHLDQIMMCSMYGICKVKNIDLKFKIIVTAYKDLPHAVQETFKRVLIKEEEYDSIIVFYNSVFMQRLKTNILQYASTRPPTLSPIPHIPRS
Assay: fluorescence polarisation; 25 °C; unlabeled Rb^P titrated against 1.5 nM TMR-E2F1^TD or 7.5 nM TMR-E7^LxCxE; 25 mM Tris pH 8.0, 200 mM NaCl, 1 mM DTT, 0.1% Tween-20; 2 min incubation; quadratic fit; apparent Kd for the variants, Kd for WT
Conditions: both partners purified
No end group written: not given here. TMR = tetramethyl rhodamine dye
Readout: Kd (nM)

• {TMR}-GEGIRDLFDCDFGDLTPLD (also called E2F^TD; source: synthetic peptide, bought: GenScript) [TMR-E2F1^TD, peptide of the E2F1 transactivation domain] = 33
• DLYCYEQLN (also: TMR label, position not given here, source: synthetic peptide, bought: GenScript) [TMR-E7^LxCxE, LxCxE peptide of the E7 oncoprotein from HPV] = 12
